assay-target: Receptor-type tyrosine-protein kinase FLT3 (Homo sapiens, UniProt P36888, D835V)
assay-info: Binding affinity to human partial length FLT3 D835V mutant (592 to 969 residues) expressed in mammalian expression system after 1 hr
measured-attribute: Kd (nM)
Return type: number; implicit unit nM.

Item: Cc1cc(Nc2ncc3ncc(=O)n(-c4ccc(N)cc4)c3n2)ccc1N1CCN(C)CC1 Test system: Receptor-type tyrosine-protein kinase FLT3 (Homo sapiens, UniProt P36888, D835V) Read-out: Kd Value: ?
0.25

* * *

assay-target: Receptor-type tyrosine-protein kinase FLT3 (Homo sapiens, UniProt P36888, F691L/ITD)
assay-info: Binding affinity to human partial length FLT3 ITD/F691L mutant expressed in mammalian expression system after 1 hr
measured-attribute: pKd
Answer as the number alone; pKd is minus log10 of concentration in mol/L.

Consider the compound shown here: Cc1cc(Nc2ncc3ncc(=O)n(-c4ccc(N)cc4)c3n2)ccc1N1CCN(C)CC1 What is its recorded pKd?
8.24
